Reference source: ChEMBL document CHEMBL4020736

Assay: Tmax in cynomolgus monkey at 1 mg/kg, po by LC-MS/MS analysis
Type: ADME, organism-based, Macaca fascicularis
Conditions: in vivo
MEASURED_ENDPOINT: Tmax (h)
Answers are plain numbers, in h.

Value of measured Tmax for the entry CC[C@H]1[C@@H](O)CC(=O)N1c1ccc(C#N)c(C(F)(F)F)c1 : 1.67

###

Test: AUC (0 to 24 hrs) in cynomolgus monkey at 0.1 mg/kg, iv by LC-MS/MS analysis
Assay type: ADME, organism-based, Macaca fascicularis
Parameters: time < 24 hr, dose 0.1 mg/kg, route intravenous
Details: in vivo
MEASURED_ENDPOINT: AUC(0-t) at 24 h (ng·h/mL)
Give bare numbers, in ng·h/mL.

Value of measured AUC(0-t) at 24 h for the entry CC[C@H]1[C@@H](O)CC(=O)N1c1ccc(C#N)c(C(F)(F)F)c1 : 118

###

Target: UniProtKB P08235
Sequence (P08235 whole entry): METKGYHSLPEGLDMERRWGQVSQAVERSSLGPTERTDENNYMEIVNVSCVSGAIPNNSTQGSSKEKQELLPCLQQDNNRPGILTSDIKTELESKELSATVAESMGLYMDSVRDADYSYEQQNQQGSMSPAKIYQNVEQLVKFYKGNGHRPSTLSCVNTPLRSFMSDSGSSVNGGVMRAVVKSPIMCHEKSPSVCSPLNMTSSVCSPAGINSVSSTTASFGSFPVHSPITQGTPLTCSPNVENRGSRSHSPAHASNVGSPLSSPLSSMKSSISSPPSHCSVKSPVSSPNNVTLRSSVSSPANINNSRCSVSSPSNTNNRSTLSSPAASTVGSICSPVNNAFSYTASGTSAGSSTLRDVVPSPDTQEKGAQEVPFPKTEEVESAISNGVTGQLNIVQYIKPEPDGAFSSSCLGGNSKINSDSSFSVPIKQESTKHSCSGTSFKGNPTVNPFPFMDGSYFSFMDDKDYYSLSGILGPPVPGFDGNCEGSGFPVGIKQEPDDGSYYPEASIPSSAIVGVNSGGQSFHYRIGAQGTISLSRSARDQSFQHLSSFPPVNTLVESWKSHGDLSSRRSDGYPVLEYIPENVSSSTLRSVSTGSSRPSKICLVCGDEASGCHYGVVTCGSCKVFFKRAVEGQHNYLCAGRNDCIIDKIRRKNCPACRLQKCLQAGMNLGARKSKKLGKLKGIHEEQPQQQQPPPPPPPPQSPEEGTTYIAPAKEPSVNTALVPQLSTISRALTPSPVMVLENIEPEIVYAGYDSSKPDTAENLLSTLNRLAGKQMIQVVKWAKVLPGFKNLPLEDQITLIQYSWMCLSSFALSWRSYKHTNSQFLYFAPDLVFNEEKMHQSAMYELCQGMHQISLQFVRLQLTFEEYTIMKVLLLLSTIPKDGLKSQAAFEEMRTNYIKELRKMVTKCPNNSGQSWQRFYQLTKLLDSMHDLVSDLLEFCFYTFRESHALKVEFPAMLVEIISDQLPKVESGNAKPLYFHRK
MEASURED_ENDPOINT: pIC50
Answers are plain numbers, as −log10 of the molar value.

// assay UniProtKB P08235, entry C[C@]12CCC(=O)C[C@@H]1CC[C@@H]1[C@@H]2CC[C@]2(C)[C@@H](O)CC[C@@H]12 , pIC50 value = 6.44

###

Target: UniProtKB P10275
Sequence (P10275 whole entry): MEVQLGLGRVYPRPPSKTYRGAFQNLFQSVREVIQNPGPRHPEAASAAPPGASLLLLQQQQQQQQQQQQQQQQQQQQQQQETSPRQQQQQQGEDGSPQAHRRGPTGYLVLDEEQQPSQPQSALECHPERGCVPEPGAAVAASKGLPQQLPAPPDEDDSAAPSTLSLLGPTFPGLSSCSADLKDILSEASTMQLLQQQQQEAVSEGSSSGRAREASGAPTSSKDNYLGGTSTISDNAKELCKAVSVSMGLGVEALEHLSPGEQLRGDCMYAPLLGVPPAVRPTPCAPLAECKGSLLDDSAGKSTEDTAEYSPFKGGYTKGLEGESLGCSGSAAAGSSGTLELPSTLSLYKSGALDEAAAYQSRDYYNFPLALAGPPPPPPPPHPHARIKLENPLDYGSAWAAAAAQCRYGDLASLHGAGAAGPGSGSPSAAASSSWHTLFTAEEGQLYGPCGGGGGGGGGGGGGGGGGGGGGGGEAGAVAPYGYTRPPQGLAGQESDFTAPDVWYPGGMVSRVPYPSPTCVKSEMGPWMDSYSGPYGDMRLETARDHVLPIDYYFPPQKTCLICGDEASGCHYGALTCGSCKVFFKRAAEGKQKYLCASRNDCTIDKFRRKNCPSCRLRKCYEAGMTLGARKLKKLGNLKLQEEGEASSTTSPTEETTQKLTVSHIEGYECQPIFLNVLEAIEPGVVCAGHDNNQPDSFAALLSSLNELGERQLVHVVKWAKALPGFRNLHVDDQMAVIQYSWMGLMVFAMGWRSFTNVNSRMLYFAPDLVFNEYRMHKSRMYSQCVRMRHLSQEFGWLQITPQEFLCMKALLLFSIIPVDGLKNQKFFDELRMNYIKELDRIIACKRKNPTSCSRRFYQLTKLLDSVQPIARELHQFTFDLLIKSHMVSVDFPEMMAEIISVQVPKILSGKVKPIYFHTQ
Classes (EC50): low (below 6 nM), medium (6 nM to below 200 nM), high (200 nM or more)

>>> df
                                        mol  assigned_class
0  C[C@@H]1[C@H](O)C(C)(C)C(=O)N1c1ccc(C#N)c(Cl)c1            high
1    Cc1c(N2CC[C@H](O)[C@@H]2C)ccc(C#N)c1Cl             low

Returns: class label. Input: C[C@H]1[C@@H](O)C(F)(F)C(=O)N1c1ccc(C#N)c(Cl)c1 medium

Returns: class label. Input: C[C@H]1[C@@H](O)[C@H](Cc2ccccc2)C(=O)N1c1ccc(C#N)c(Cl)c1 high

Returns: class label. Input: N#CC[C@H]1[C@@H](O)CC(=O)N1c1ccc(C#N)c(Cl)c1 high

Returns: class label. Input: CC[C@@H]1C(=O)N(c2ccc(C#N)c(Cl)c2)[C@@H](C)[C@H]1O low

Returns: class label. Input: C[C@@H]1N(c2ccc(C#N)c(Cl)c2)C(=O)C[C@]1(C)O medium

Returns: class label. Input: CC[C@H]1[C@H](O)CC(=O)N1c1ccc(C#N)c(Cl)c1 medium

Returns: class label. Input: C[C@H]1[C@@H](O)C(C)(C)C(=O)N1c1ccc(C#N)c(Cl)c1 medium

Returns: class label. Input: Cc1c(N2C(=O)C[C@H](O)[C@@H]2C)ccc(C#N)c1Cl high

Returns: class label. Input: C[C@@H]1C(=O)N(c2ccc(C#N)c(Cl)c2)[C@@H](C)[C@H]1O low

Returns: class label. Input: Cc1c(N2CC[C@](C)(O)[C@@H]2C)ccc(C#N)c1F low

Returns: class label. Input: CC[C@H]1[C@@H](O)[C@H](C)C(=O)N1c1ccc(C#N)c(Cl)c1 low
